Source listed as patent US20220242939A1.

System Under Test: T1, L198 N-terminal neo-epitope peptide LAGQPL-Acp-C (SEQ ID NO:52) conjugated to BSA (human, not fully specified (residue 8); printed as LAGQPL-Acp-C; also: C-terminal Cys conjugated to BSA carrier)
T1 construct: BSA carrier; also called L198-BSA peptide
T1 peptide: LAGQPL[Ahx]C
Protocol Details: direct ELISA, L198-BSA peptide coated at 1 µg/ml
Non-standard residues stand in square brackets, D forms with d. No end group written: not given here. Ahx = NCCCCCC(=O)O
Metric: EC50 (mg/L)
Numeric only. Scale: mg/L

Would you please look over these solved cases?
# Binder, Display Unit, EC50
rows = [
    ("15H11, monoclonal anti-L198 antibody (antibody, IgG1, V domains shown) VH: EVKLEESGGGLVQPGGAMKLSCVASGITFSNYWMNWVRQCPEKGLEWVAQIRLKSDNYATHYAESVKGRFTISRDDSKSSVYLQMNTLRAEDTGIYYCTHHYYGSSGYVDVWGTGTTVTVSS VL: DIVMTQSQKFMSTSVGDRVSVTCKASQNVGNNVAWYQKKPGQCPKGMILSASQRYSGVPDRFTGSGFGTEFTLIISNVQSEDLAEYFCHQYNSYPYTFGGGTKLERK", "mg/L", 0.0032),
    ("15F8, monoclonal anti-L198 antibody (antibody, IgG2c, V domains shown) VH: EVKLEESGGGLVHPGGSMKLSCVGSGFTFSNYWMNWVRQSPEKGLEWVAQIKLRSDNYATHYAESVKGKFTISRDDAKSSVYLQMDNLRAEDTGIYYCSHHYLDSGGYFDVWGTGTSVTVSS VL: DIVMTQSQKFMSTSVGDRVSVTCKASQNVGINVAWYQDKPGQSPKGLILSASYRYSGVPDRFTGSGSGTDFTLTISNVQSEDLAEYFCQQYNSYPYTFGGGTKLEIK", "mg/L", 0.0247),
    ("6F4, monoclonal anti-L198 antibody (antibody, IgG1, V domains shown) VH: EVNLEESGGDLVQPGRSLKLSCVASGFTFSDYWMNWVRQSPEKGLEWVAQIRLKSDNYVTHYVESLKGRFTISRDDSRSCVYLQMNNLRAEDTGIYYCTGHILLRRRYFDVWGTGTTVTVSS VL: DIVMTQSQKFMSTSVGDRVSVTCEASQNVGTNVAWYQQKPGQSPKGLIYSASYRYSGVPDRFTGSGSGTDFTLTISTVQSEDLAEYFCHQFNTYPYTFGGGTTLEII", "mg/L", 0.0135),
]

With those in mind, consider the next binder.
Name the recorded EC50 for 12B1, monoclonal anti-L198 antibody (antibody, IgG2c, V domains shown) VH: EVKLEESGGGLVQPGGSMKLSCVASGITFSKYWMNWVRQCPEKGLEWVAQIRLRSDNYATHYAESVKGRFTISRDDSKSSVYLQMNTLRAEDTGIYYCTHHYYGSSGYVDVWGTGTTVTVSS VL: DIVMTQSQKFMSTSVGDRVSVTCKASQNVGTNVAWYQQKPGQCPKGMILSASQRYSGVPDRFTGSGFGTEFTLTISNVQSEDLAEYFCQQYNSYPYTFGGGTKLERK .
0.0152
